Reported values: IC50 for Estrogen receptor beta (Homo sapiens), one per item.
Provide the measurement as a number trailed by its unit.

Prompt line: For CC/C(=C(/c1ccc(O)cc1)c1ccc(/C=C/C(=O)NCCCCNC(=O)/C=C/c2ccc(/C(=C(\CC)c3ccccc3)c3ccc(O)cc3)cc2)cc1)c1ccccc1 , what is its reported IC50?
Response line: 44 nM

Prompt line: For O=C(/C=C/c1ccc(C(=C2CCCCC2)c2ccc(O)cc2)cc1)NCCCNC(=O)/C=C/c1ccc(C(=C2CCCCC2)c2ccc(O)cc2)cc1 , what is its reported IC50?
Response line: 34 nM

Prompt line: For CC/C(=C(/c1ccc(O)cc1)c1ccc(/C=C/C(=O)NCCCNC(=O)/C=C/c2ccc(/C(=C(\CC)c3ccccc3)c3ccc(O)cc3)cc2)cc1)c1ccccc1 , what is its reported IC50?
Response line: 22.2 nM

Prompt line: For CC/C(=C(/c1ccc(O)cc1)c1ccc(/C=C/C(=O)NCCNC(=O)/C=C/c2ccc(/C(=C(\CC)c3ccccc3)c3ccc(O)cc3)cc2)cc1)c1ccccc1 , what is its reported IC50?
Response line: 67.7 nM

Prompt line: For O=C(/C=C/c1ccc(C(=C2CCCCC2)c2ccc(O)cc2)cc1)NCCCCNC(=O)/C=C/c1ccc(C(=C2CCCCC2)c2ccc(O)cc2)cc1 , what is its reported IC50?
Response line: 15.7 nM

Prompt line: For O=C(/C=C/c1ccc(C(=C2CCCCC2)c2ccc(O)cc2)cc1)NCCNC(=O)/C=C/c1ccc(C(=C2CCCCC2)c2ccc(O)cc2)cc1 , what is its reported IC50?
Response line: 27.5 nM

Prompt line: For CC/C(=C(/c1ccc(O)cc1)c1ccc(/C=C/C(=O)NCCCCCNC(=O)/C=C/c2ccc(/C(=C(\CC)c3ccccc3)c3ccc(O)cc3)cc2)cc1)c1ccccc1 , what is its reported IC50?
Response line: 15.5 nM

---

Below, each entry is listed alongside its reported pIC50.
Tested on: COS-7
Test: cells
Conditions: Chlorocebus aethiops, COS-7, 72 h
Description: Cytotoxicity against African green monkey COS7 cells assessed as reduction in cell mass measured after 72 hrs by crystal violet staining based assay
Would you please state pIC50, meaning minus log10 of the concentration in mol/L, as a bare number?

- Compound: "CC/C(=C(/c1ccc(O)cc1)c1ccc(OCCN(C)C)cc1)c1ccccc1"
  pIC50: 5.06

Prompt line: For C[C@]12CC[C@@H]3c4ccc(O)cc4C[C@@H](CCCCCCCCC[S+]([O-])CCCC(F)(F)C(F)(F)F)[C@H]3[C@@H]1CC[C@@H]2O (some centres not stated) [FULVESTRANT] , what is its reported pIC50?
Response line: 4.47

---

Reported values: IC50 for Estrogen receptor (Homo sapiens), one per item.
Hi! Could you send only the number? It should be in µM, unit omitted.

Guide cases for IC50, answers given:
- Substance Smiles: "O=C(/C=C/c1ccc(C(=C2CCCCC2)c2ccc(O)cc2)cc1)NCCCNC(=O)/C=C/c1ccc(C(=C2CCCCC2)c2ccc(O)cc2)cc1"
  Target System: "Estrogen receptor (Homo sapiens)"
  IC50, µM: 0.565
- Substance Smiles: "CC/C(=C(/c1ccc(O)cc1)c1ccc(/C=C/C(=O)NCCCCNC(=O)/C=C/c2ccc(/C(=C(\\CC)c3ccccc3)c3ccc(O)cc3)cc2)cc1)c1ccccc1"
  Target System: "Estrogen receptor (Homo sapiens)"
  IC50, µM: 0.29
- Substance Smiles: "CC/C(=C(/c1ccc(O)cc1)c1ccc(/C=C/C(=O)NCCNC(=O)/C=C/c2ccc(/C(=C(\\CC)c3ccccc3)c3ccc(O)cc3)cc2)cc1)c1ccccc1"
  Target System: "Estrogen receptor (Homo sapiens)"
  IC50, µM: 0.26

Prompt line: Tell me reported IC50 for CC/C(=C(/c1ccc(O)cc1)c1ccc(/C=C/C(=O)NCCCNC(=O)/C=C/c2ccc(/C(=C(\CC)c3ccccc3)c3ccc(O)cc3)cc2)cc1)c1ccccc1 , tested with Estrogen receptor (Homo sapiens).
Sequence (P03372 whole entry): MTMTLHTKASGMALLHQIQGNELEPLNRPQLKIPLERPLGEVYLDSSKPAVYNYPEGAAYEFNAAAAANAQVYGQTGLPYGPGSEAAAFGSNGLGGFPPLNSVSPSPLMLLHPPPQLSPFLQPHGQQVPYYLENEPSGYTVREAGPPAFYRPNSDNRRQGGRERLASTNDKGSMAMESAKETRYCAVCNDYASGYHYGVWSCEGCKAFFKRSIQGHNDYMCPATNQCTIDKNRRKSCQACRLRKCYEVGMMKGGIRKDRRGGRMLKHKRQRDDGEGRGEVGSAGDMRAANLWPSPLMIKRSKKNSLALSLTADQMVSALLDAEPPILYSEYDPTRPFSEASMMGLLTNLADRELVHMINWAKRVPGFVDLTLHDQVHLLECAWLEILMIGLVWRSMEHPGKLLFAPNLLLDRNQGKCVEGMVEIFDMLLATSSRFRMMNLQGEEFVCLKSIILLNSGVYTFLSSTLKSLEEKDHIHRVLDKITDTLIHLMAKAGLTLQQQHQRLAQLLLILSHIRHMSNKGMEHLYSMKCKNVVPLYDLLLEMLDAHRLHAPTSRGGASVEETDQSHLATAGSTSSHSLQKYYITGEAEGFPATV
Response line: 0.136

Just for reference, ChEMBL document CHEMBL4680223 is where these values come from.
